biological target: Low molecular weight phosphotyrosine protein phosphatase (Homo sapiens) (UniProt P24666)
Sequence (P24666 whole entry, looked up): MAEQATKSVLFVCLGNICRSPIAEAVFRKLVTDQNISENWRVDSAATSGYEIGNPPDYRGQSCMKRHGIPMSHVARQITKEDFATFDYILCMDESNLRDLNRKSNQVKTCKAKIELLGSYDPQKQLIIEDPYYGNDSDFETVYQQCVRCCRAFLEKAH
Measured quantity: Ki

CC(=O)Nc1c(C)cc(OCC(=O)O)cc1C; 73.2 µM
